# system_under_test: Ghrelin receptor (Homo sapiens, UniProt Q92847)
# Sequence (Q92847 whole entry): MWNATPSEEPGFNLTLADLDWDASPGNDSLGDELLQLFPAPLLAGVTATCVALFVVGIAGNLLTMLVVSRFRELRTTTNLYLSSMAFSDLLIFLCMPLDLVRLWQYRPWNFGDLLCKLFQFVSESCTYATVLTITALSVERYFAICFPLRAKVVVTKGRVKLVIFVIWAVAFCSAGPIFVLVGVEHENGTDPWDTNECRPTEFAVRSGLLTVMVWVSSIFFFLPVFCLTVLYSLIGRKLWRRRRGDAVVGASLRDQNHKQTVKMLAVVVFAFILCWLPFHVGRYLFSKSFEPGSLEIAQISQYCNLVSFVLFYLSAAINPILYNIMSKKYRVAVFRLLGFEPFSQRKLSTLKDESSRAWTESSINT
# run_description: Receptor Selection and Amplification Technology (R-SAT) assay
# Format: cell-based
# Set-up: expressed in transfected cells; host or cells: NIH3T3
# condition_set: negative logarithm of ligand concentration causing 50% inhibition of constitutive receptor response; transfected NIH3T3 cells; '—' not defined (nd used separately); read-out: RSAT pIC50 (converted)
observable: IC50 (nM)

>>> print(df.to_string())
                                    compound                         system_under_test  unit_of_measurement  result_number
 0  COc1cccc2c(C(C)=O)cn(CCCN3CCN(c4ccc(F)cc4)CC3)c12  Ghrelin receptor (Homo sapiens, UniProt Q92847)                   nM           15.8
 1  CC(=O)c1cn(CCCN2CCC(C(=O)c3ccccc3)CC2)c2ccccc12  Ghrelin receptor (Homo sapiens, UniProt Q92847)                   nM           5010
 2  CC(=O)c1cn(CC(O)CN2CCC(Oc3ccccc3Cl)CC2)c2ccccc12 (stereo not shown)  Ghrelin receptor (Homo sapiens, UniProt Q92847)                   nM           3160
 3  CC(=O)c1cn(CCCN2C3CCC2CC(CCc2ccccc2)C3)c2ccccc12 (stereo not shown) [drawing 433]  Ghrelin receptor (Homo sapiens, UniProt Q92847)                   nM           63.1
 4  CC(=O)c1cn(CCCN2CCN(CCOc3ccccc3)CC2)c2ncccc12  Ghrelin receptor (Homo sapiens, UniProt Q92847)                   nM            631
 5  CCc1cccc2c(C(C)=O)cn(CCCN3CCC(c4nc(-c5ccncc5)no4)CC3)c12  Ghrelin receptor (Homo sapiens, UniProt Q92847)                   nM           39.8
 6  CC(=O)c1cn(CCCN2CCC(Oc3ccc(F)cc3)CC2)c2c(Cl)cccc12  Ghrelin receptor (Homo sapiens, UniProt Q92847)                   nM           39.8
 7  CC(=O)c1cn(CCCN2CCCN(Cc3ccccc3Cl)CC2)c2c(Cl)cccc12  Ghrelin receptor (Homo sapiens, UniProt Q92847)                   nM           7.94
 8  CCC(=O)c1cn(CCCN2CCC(Oc3ccc(F)cc3)CC2)c2ccccc12  Ghrelin receptor (Homo sapiens, UniProt Q92847)                   nM            794
 9  O=C(c1cn(CCCN2C3CCC2CC(O)(c2ccc(F)cc2)C3)c2ccccc12)C(F)(F)F (stereo not shown)  Ghrelin receptor (Homo sapiens, UniProt Q92847)                   nM         251000
10  CC(=O)c1cn(CCCN2CCN(C(C)c3ccccc3)CC2)c2ccc(Br)cc12 (stereo not shown)  Ghrelin receptor (Homo sapiens, UniProt Q92847)                   nM           1260
11  CC(=O)c1cn(CCCN2C3CCC2CC(CC(=O)c2ccc(Cl)cc2)C3)c2c(Cl)cccc12 (stereo not shown)  Ghrelin receptor (Homo sapiens, UniProt Q92847)                   nM            501
12  CCCCC1CCN(CC(C)Cn2c(=O)sc3ccccc32)CC1 (stereo not shown)  Ghrelin receptor (Homo sapiens, UniProt Q92847)                   nM           2000
13  CC(=O)c1cn(CCCN2C3CCC2CC(Oc2ccc(Cl)cc2)C3)c2c(C)cccc12 (stereo not shown)  Ghrelin receptor (Homo sapiens, UniProt Q92847)                   nM           5.01
14  CCCCC[C@H]1C[C@H]2CC[C@@H](C1)N2CCCn1cc(C(C)=O)c2cccc(Br)c21  Ghrelin receptor (Homo sapiens, UniProt Q92847)                   nM           1.26
15  CC(=O)c1cn(CCCN2CCC3(CC2)CC(=O)c2ccccc2O3)c2c(C)cccc12  Ghrelin receptor (Homo sapiens, UniProt Q92847)                   nM            316
16  CCCCC1CCN(CCCn2cc(C(C)=O)c3ccc(Br)cc32)CC1  Ghrelin receptor (Homo sapiens, UniProt Q92847)                   nM           3160
17  CCC(=O)c1cn(CCCN2CCC(c3nc4ccccc4s3)CC2)c2ccccc12  Ghrelin receptor (Homo sapiens, UniProt Q92847)                   nM            158
18  CC(=O)c1cn(CCCN2CCC(c3nc(-c4ccccc4)no3)CC2)c2c(Br)cccc12  Ghrelin receptor (Homo sapiens, UniProt Q92847)                   nM            501
19  CCCCC(=O)c1cn(CCCN2CCC(CCCC)CC2)c2ccc(OC)cc12  Ghrelin receptor (Homo sapiens, UniProt Q92847)                   nM            158
20  COc1cccc2c(C(C)=O)cn(CC(C)CN3C4CCC3CC(CCc3ccccc3)C4)c12 (stereo not shown)  Ghrelin receptor (Homo sapiens, UniProt Q92847)                   nM           50.1
21  CC(=O)c1cn(CCCCN2CCN(C(C)c3ccccc3)CC2)c2ccccc12 (stereo not shown)  Ghrelin receptor (Homo sapiens, UniProt Q92847)                   nM           2000
22  O=C(c1cn(CCCN2CCCN(Cc3ccccc3Cl)CC2)c2ncccc12)C(F)(F)F  Ghrelin receptor (Homo sapiens, UniProt Q92847)                   nM           31.6
23  COc1cccc2c(C(C)=O)cn(CCCN3CCC(Oc4ccc(Cl)cc4)CC3)c12 [drawing 300]  Ghrelin receptor (Homo sapiens, UniProt Q92847)                   nM           7.94
24  CC(=O)c1cn(CCCN2C3CCC2CC(CCc2ccccc2)C3)c2ccccc12 (stereo not shown) [drawing 267]  Ghrelin receptor (Homo sapiens, UniProt Q92847)                   nM           5.01
25  CC(=O)c1cn(CCCN2CCC(C(=O)c3ccccc3)CC2)c2c(C)cccc12  Ghrelin receptor (Homo sapiens, UniProt Q92847)                   nM           3.16
26  CCCOC1CCN(CCCn2cc(C(C)=O)c3ccc(OC)cc32)CC1  Ghrelin receptor (Homo sapiens, UniProt Q92847)                   nM           1260
27  O=C(c1cn(CCCN2CCC(Oc3ccccc3Cl)CC2)c2ccccc12)C(F)(F)F  Ghrelin receptor (Homo sapiens, UniProt Q92847)                   nM           2000
28  COc1ccc2c(C(C)=O)cn(CCCN3C4CCC3CC(OCC3CC3)C4)c2c1 (stereo not shown)  Ghrelin receptor (Homo sapiens, UniProt Q92847)                   nM            158
29  COc1cccc2c(C(=O)NCC(C)C)cn(CCCN3CCC(Oc4ccc(F)cc4)CC3)c12  Ghrelin receptor (Homo sapiens, UniProt Q92847)                   nM           1.58
30  CCc1cccc2c(C(C)=O)cn(CCCNCCOc3ccccc3)c12  Ghrelin receptor (Homo sapiens, UniProt Q92847)                   nM            100
31  COc1cccc2c(C#N)cn(CCCN3C4CCC3CC(Oc3ccc(F)cc3)C4)c12 (stereo not shown)  Ghrelin receptor (Homo sapiens, UniProt Q92847)                   nM          15800
32  CCc1cccc2c(C(C)=O)cn(CCCN3CCCC(Cc4ccccc4Cl)C3)c12 (stereo not shown)  Ghrelin receptor (Homo sapiens, UniProt Q92847)                   nM             20
33  CC(=O)c1cn(CCCN2C3CCC2CC(Oc2ccc(F)cc2)C3)c2c(Br)cccc12 (stereo not shown)  Ghrelin receptor (Homo sapiens, UniProt Q92847)                   nM           15.8
